Molecular target: Human adrenergic α1B receptor (Homo sapiens, UniProt P35368)
Sequence (P35368 1-520): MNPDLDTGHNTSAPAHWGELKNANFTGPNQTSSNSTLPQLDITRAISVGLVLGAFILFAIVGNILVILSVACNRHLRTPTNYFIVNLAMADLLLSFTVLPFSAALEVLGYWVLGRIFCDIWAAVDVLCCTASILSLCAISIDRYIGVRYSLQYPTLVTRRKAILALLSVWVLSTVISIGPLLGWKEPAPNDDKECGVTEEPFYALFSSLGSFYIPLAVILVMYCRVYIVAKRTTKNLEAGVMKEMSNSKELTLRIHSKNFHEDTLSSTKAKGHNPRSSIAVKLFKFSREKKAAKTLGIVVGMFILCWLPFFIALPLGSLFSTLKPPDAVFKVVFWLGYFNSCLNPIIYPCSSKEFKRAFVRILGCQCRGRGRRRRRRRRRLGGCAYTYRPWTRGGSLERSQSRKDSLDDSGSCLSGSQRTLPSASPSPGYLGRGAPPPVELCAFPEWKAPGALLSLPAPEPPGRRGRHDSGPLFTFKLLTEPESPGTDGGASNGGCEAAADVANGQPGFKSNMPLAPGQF
Assay: Radioligand binding, adrenergic α1B (Protocol Group B)
Parameters: purchased Milipore (Millipore)
Conditions: 0.1 μM compound; Protocol Group B; 0.1 µM
Percentage inhibition of ligand binding, Adrenergic α1B (0.1 μM) values, listed per item
REPORTED METRIC: Percentage inhibition of ligand binding, Adrenergic α1B (0.1 μM) (%)

CC(O)(Cn1c2c(c3cc(F)ccc31)C1CCCN1CC2)c1ccncc1 (single isomer, unassigned) [31c]: 1
OC(Cn1c2c(c3cc(F)cc(F)c31)C1CCCN1CC2)c1ccncc1 (single isomer, unassigned) [144c]: −2
Cc1ccc2c(c1)c1c(n2CC(C)(O)c2cncc(F)c2)CCN(C)C1 (single isomer, unassigned) [46a]: 6
Cc1ccc2c(c1F)c1c(n2CC(C)(O)c2cccnc2)CCN2CCCC12 (single isomer, unassigned) [87a]: 13
Cc1ccc2c(c1)c1c(n2CC(C)(O)c2cccnc2)CC2CCCN2C1 (stereo not shown) [38d]: 1
CC(O)(Cn1c2c(c3cc(Cl)cc(F)c31)CN1CCCC1C2)c1cccnc1 (single isomer, unassigned) [63b]: −1
Cc1ccc2c(c1)c1c(n2CC(O)c2ccccn2)CC2CCCN2C1 (single isomer, unassigned) [45c]: −5
